# SYSTEM: MMP-13 (Homo sapiens, UniProt P45452)
# Construct: made in house; host or cells: insect cells, baculovirus expression
# PROCEDURE TEXT: In vitro metalloprotease inhibition, fluorogenic MCA peptide substrate
# Format: biochemical
# DETAILS: Inhibition Table B
Counter-ions that a name gives are not always drawn.
MEASURED ATTRIBUTE: pIC50
Convention used: pIC50 is expressed as -log10 of the molar concentration.

Solved cases (2 shown):
* COc1ccc(C(C)C)cc1-c1ccc(OC2CCN(S(=O)(=O)c3ccc(OC)c(OC)c3C(=O)NO)CC2)cc1 | 7.00
* CCCCOc1ccc(N2CCN(S(=O)(=O)c3ccc(OC)c(OC)c3C(=O)NO)CC2)cc1C [Example 56, monohydrochloride] | 7.70

Next:
Lab note: COc1ccc(N2CCN(S(=O)(=O)c3ccc(OC)c(OC)c3C(=O)NO)CC2)cc1 [Example 41, monohydrochloride] gave pIC50 of 7.00

meta.source: patent US7115632B1
